EXPERIMENTAL_SYSTEM: SCRIB_3, Q14160
Sequence (Q14160 999-1103): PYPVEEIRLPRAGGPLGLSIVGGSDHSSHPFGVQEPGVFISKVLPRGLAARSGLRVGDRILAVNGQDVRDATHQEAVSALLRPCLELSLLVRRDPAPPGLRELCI
ASSAY_REMARKS: holdup assay
Design: key: below the threshold = too weak to quantify, mostly under pKd 3.1 to 4
TEST_SETTINGS: plain residues with an end cap or a label only (N-terminal biotin on a linker: ttds)
Each entry below carries its reported pKd.
Could you respond with only the numeric value?

Field pKd (entry RLQRRRETQV [HPV18-E6, P06463] ) reads 4.84

The binder identified as RPLPRKVSQL [DOCK4, Q8N1I0] registered its pKd at 4.72

// field: pKd; key: VDFPPKESSL [ACVR2A, P27037] ; value = 4.88

For record FHPLGADSQV [SLC2A1, P11166] the listed pKd is 3.58

Entry QRQARSETLV [HPV59-E6, Q81964] ; pKd = 3.86

Hello, the source for this data is paper PMC9482650, in case you need it.
